- System: 475296-252-R-J1-PDC spheroid viability;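 note: spheroids exposed to agents for seven days before readout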
- assay-notes: Anticancer human tumor 475296-252-R-J1-PDC patient-derived rectal carcinoma cell line growth inhibition [PI3K]
- experimental-setup: second compound 1 µM; first compound 10 µM; stronger effect = lower value; spheroids with HUVEC and MSC
- Source text: Combinatorial screen of targeted agents with the PI3K inhibitors inavolisib, alpelisib, duvelisib, and copanlisib in multi-cell type tumor spheroids A high-throughput screen of multi-cell type tumor spheroids was designed to identify active combinations of targeted small molecules and PI3K pathway inhibitors. […] Compounds. […] If the clinical Cmax for an agent had not been determined, the highest concentration tested was 10 microM. […]
endpoint-label: viability, T/C

Incoming: Which viability, T/C is reported for this compound? CC(Cn1ccc(-c2ccc(C#N)c(Cl)c2)n1)NC(=O)c1cc(C(C)O)[nH]n1 (stereo not drawn) + CC(Nc1ccc2c(c1)OCCn1cc(N3C(=O)OCC3C(F)F)nc1-2)C(N)=O
Outgoing: 83.4%

Incoming: Which viability, T/C is reported for this compound? Cn1nccc1Nc1nccc(-c2ccn(C(CO)c3ccc(Cl)c(F)c3)c(=O)c2)n1 (stereo not drawn) + CC(Nc1ncnc2nc[nH]c12)c1cc2cccc(Cl)c2c(=O)n1-c1ccccc1
Outgoing: 59.1%

Incoming: Which viability, T/C is reported for this compound? CC1(C)CCC(CN2CCN(c3ccc(C(=O)NS(=O)(=O)c4ccc(NCC5CCOCC5)c([N+](=O)[O-])c4)c(Oc4cnc5[nH]ccc5c4)c3)CC2)=C(c2ccc(Cl)cc2)C1 + COc1c(OCCCN2CCOCC2)ccc2c3n(c(=NC(=O)c4cnc(N)nc4)nc12)CCN3
Outgoing: 39.5%
